Measured BTK_I_binding pIC50, listed per entry for reference.
Biological target: unphosphorylated-BTK kinase domain (UP-BTK), GST-tagged human BTK (389-659aa) (Homo sapiens (Human), UniProt Q06187)
Sequence (Q06187 389-659): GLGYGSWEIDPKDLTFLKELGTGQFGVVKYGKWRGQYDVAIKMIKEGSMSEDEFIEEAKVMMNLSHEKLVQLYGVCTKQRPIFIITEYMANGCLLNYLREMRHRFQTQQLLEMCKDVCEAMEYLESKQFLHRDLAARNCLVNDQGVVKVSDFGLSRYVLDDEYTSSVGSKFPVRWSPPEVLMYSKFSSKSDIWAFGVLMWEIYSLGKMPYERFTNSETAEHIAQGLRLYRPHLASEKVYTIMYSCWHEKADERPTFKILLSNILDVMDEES
Assay: BTK kinase Lanthascreen binding assay
Conditions: unphosphorylated-BTK kinase domain, 50 nM Tracer 236, 60 minutes; pIC50 = negative log of the IC50 in molar
Write the number on its own, no unit after it.

# COMPOUND, BTK_I_binding pIC50
data = [
    ("C=CC(=O)N1CC[C@@H](NC(=O)c2sc3nccc4c3c2NC(=O)N4c2ccccc2F)C1 [Example 301]", 6.0),
    ("O=C(N[C@@H]1CCCNC1)c1sc2nccc3c2c1NC(=O)N3c1cc(Cl)cc(Cl)c1 [Example 330]", 5.6),
    ("Cc1cc(Oc2ccccc2)ccc1N1C(=O)Nc2c(C(=O)N[C@@H]3CCN(C(=O)/C=C/CN(C)C)C3)sc3nccc1c23 [Example 368]", 7.6),
]

Now take the following compound into account.
Please report the recorded BTK_I_binding pIC50 for C=CC(=O)N1CCC[C@@H](NC(=O)c2sc3nccc4c3c2NC(=O)N4c2ccc(OC(F)(F)F)cc2)C1 [Example 416] .
6.7

###

Biological target: unphosphorylated-BTK kinase domain (UP-BTK), GST-tagged human BTK (389-659aa) (Homo sapiens (Human))
Assay: BTK kinase Lanthascreen binding assay
Details: Lanthascreen tracer competition, 60 minutes incubation; pIC50 = negative log of the IC50 in molar
We label by threshold. Values of BTK_I_binding pIC50 strictly beneath 8 are Y. Values of 8 and up are N.

// below: answered compounds
# COMPOUND, LABEL_VALUE
records = [
    ("COc1ccccc1Oc1ccc(N2C(=O)Nc3c(C(=O)NC4CCCNC4)sc4nccc2c34)c(C)c1 (stereo not drawn) [Example 870]", "Y"),
    ("C=CC(=O)N1CCC[C@@H](NC(=O)c2sc3nccc4c3c2NC(=O)N4c2ccc(Oc3ccccc3F)cn2)C1 [Example 777]", "N"),
    ("C=CC(=O)N1CCC[C@@H](NC(=O)c2sc3nccc4c3c2NC(=O)N4c2cccc(C3COC3)c2)C1 [Example 632]", "Y"),
]

Does the reported BTK_I_binding pIC50 of CC(=O)c1cccc(N2C(=O)Nc3c(C(=O)N[C@@H]4CCCNC4)sc4nccc2c34)c1 [Example 643] stay below 8?
Y

And then C=CC(=O)N1CCC[C@@H](NC(=O)c2sc3nccc4c3c2NC(=O)N4c2ccnc(-c3ccccc3)c2C)C1 (single isomer, unassigned) [Example 676] , what is it?
Y

###

Target: unphosphorylated-BTK kinase domain (UP-BTK), GST-tagged human BTK (389-659aa) (Homo sapiens (Human), UniProt Q06187)
Experiment: BTK kinase Lanthascreen binding assay
Conditions: unphosphorylated-BTK kinase domain, 50 nM Tracer 236, 60 minutes; pIC50 = negative log of the IC50 in molar
Method: BTK Kinase Lanthascreen Binding Assay: A BTK kinase lanthascreen binding assay monitors compound binding to unphosphorylated-BTK kinase domain (UP-BTK), by competing with a fluorescent labeled tracer. […] Data were analyzed using Xlfit™ version 5.3 from ID Business Solutions (Guildford), Microsoft Excel add-in. pIC50 refers to the negative log of the IC50 in molar
MEASURED_ATTRIBUTE: BTK_I_binding pIC50
# answer = number (no unit)

For the compound O=C(N[C@@H]1CCCNC1)c1sc2nccc3c2c1NC(=O)N3c1ccc2sccc2c1 [Example 410] , what BTK_I_binding pIC50 is on record?
5.0

And the next one, Cc1cc(Oc2ccccc2)ccc1N1C(=O)Nc2c(C(=O)N[C@@H]3CNC(=O)C3)sc3nccc1c23 (single isomer, unassigned) [Example 470] ?
5.6

Moving on to the next compound: Cc1cc(Oc2ccccc2)ccc1N1C(=O)Nc2c(C(=O)N[C@@H]3CCCN(C(=O)CN4CCCC4)C3)sc3nccc1c23 [Example 389]
7.0

Also Cc1cc(Oc2ccccc2)ccc1N1C(=O)Nc2c(C(=O)N[C@@H]3CCCN(C(=O)/C=C/CO)C3)sc3nccc1c23 (single isomer, unassigned) [Example 503] ?
7.8

And for Cc1cc(C(C)C)ccc1N1C(=O)Nc2c(C(=O)N[C@@H]3CCCN(C)C3)sc3nccc1c23 [Example 447] ?
5.6

Cc1cc(Oc2ccccc2)ccc1N1C(=O)Nc2c(C(=O)NC3(CO)CCOCC3)sc3nccc1c23 [Example 436] , same question.
7.3

###

Molecular target: unphosphorylated-BTK kinase domain (UP-BTK), GST-tagged human BTK (389-659aa) (Homo sapiens (Human))
Assay: BTK kinase Lanthascreen binding assay
Conditions: Lanthascreen tracer competition, 60 minutes incubation; pIC50 = negative log of the IC50 in molar; read-out: BTK_I_binding pIC50 (converted)
MEASURED_ATTRIBUTE: IC50 (nM)
Please give a number only; it is taken to be in nM.

# MOLECULE, MEASURED_ATTRIBUTE, RESULT_UNITS, VAL
rows = [
    ("O=C(N[C@@H]1CCCNC1)c1sc2nccc3c2c1NC(=O)N3c1cc(-c2ccccc2)ncn1", "IC50", "nM", 794),
    ("C=CC(=O)N[C@H]1COC[C@H]1NC(=O)c1sc2nccc3c2c1NC(=O)N3c1cnc(Oc2ccccc2)cc1C (single isomer, unassigned) [Example 745]", "IC50", "nM", 7.94),
]

Please find the next molecule below.
Sample Cc1cc(Oc2ccccc2)ccc1N1C(=O)Nc2c(C(=O)NC3CCCNC3)sc3nccc1c23 (stereo in doubt) — what was its IC50?
50.1

###

Target: unphosphorylated-BTK kinase domain (UP-BTK), GST-tagged human BTK (389-659aa) (Homo sapiens (Human), UniProt Q06187)
Assay: BTK kinase Lanthascreen binding assay
Conditions: pIC50 = negative log of the IC50 in molar; 60 minutes incubation, 50 nM Tracer 236; read-out: BTK_I_binding pIC50 (converted)
MEASURED_ATTRIBUTE: IC50

These recorded examples may help you get a feel for the data.
# COMPOUND, VAL
records = [
    ("C=CC(=O)N1C[C@H](F)C[C@@H](NC(=O)c2sc3nccc4c3c2NC(=O)N4c2ccc(Oc3ccccc3)cc2C)C1", "0.02 µM"),
    ("Cc1cc(Oc2ccccc2)ccc1N1C(=O)Nc2c(C(=O)NC3COCCN(C#N)C3)sc3nccc1c23 (stereo not drawn)", "0.02 µM"),
]

What measured IC50 goes with C=CC(=O)N1C[C@H](NC(=O)c2sc3nccc4c3c2NC(=O)N4c2ccc(Oc3ccccc3)cc2C)[C@@H](F)C1 ?
0.02 µM

###

Molecular target: unphosphorylated-BTK kinase domain (UP-BTK), GST-tagged human BTK (389-659aa) (Homo sapiens (Human))
Assay: BTK kinase Lanthascreen binding assay
Details: unphosphorylated-BTK kinase domain, 50 nM Tracer 236, 60 minutes; pIC50 = negative log of the IC50 in molar
Kindly return YES if reported BTK_I_binding pIC50 is no lower than 7; return NO if it is lower.

# COMPOUND, LABEL_VALUE
records = [
    ("Cc1cc(Oc2ccccc2)c(F)cc1N1C(=O)Nc2c(C(=O)N[C@H]3CCCOC3)sc3nccc1c23", "NO"),
    ("C/C(=C\\C1CC1)C(=O)N1CCC[C@@H](NC(=O)c2sc3nccc4c3c2NC(=O)N4c2ccc(Oc3ccccc3)cc2C)C1", "NO"),
    ("C=CC(=O)N1CCC[C@@H](NC(=O)c2sc3nccc4c3c2NC(=O)N4c2cccc(-c3cccc(F)c3F)c2)C1", "YES"),
]

Reported BTK_I_binding pIC50 at or above 7? O=C(N[C@@H]1CCCNC1)c1sc2nccc3c2c1NC(=O)N3c1ccc(C(F)(F)F)cc1
NO

And for CN(C)CC(=O)N1CC[C@@H](NC(=O)c2sc3nccc4c3c2NC(=O)N4c2ccc(Oc3ccccc3)cc2)C1 ?
YES

Ok, now Cc1cc(Oc2ccccc2)ccc1N1C(=O)Nc2c(C(=O)N[C@@H]3CCCN(C(=O)CCO)C3)sc3nccc1c23 (single isomer, unassigned)
NO

# iterate: O=C(N[C@@H]1CCCNC1)c1sc2nccc3c2c1NC(=O)N3c1ccc(Cc2ccccc2)cc1
NO

Next up: Cc1cc(Oc2ccccc2)ccc1N1C(=O)Nc2c(C(=O)N[C@@H]3CCN(C(=O)/C=C/CO)C3)sc3nccc1c23 (single isomer, unassigned)
YES

###

Target: unphosphorylated-BTK kinase domain (UP-BTK), GST-tagged human BTK (389-659aa) (Homo sapiens (Human), UniProt Q06187)
Assay: BTK kinase Lanthascreen binding assay
Conditions: pIC50 = negative log of the IC50 in molar; 60 minutes incubation, 50 nM Tracer 236
MEASURED_ATTRIBUTE: BTK_I_binding pIC50
I only need the number, thanks.

A selection of reference data follows.
# COMPOUND, VAL
records = [
    ("CO[C@@H]1CNC[C@H](NC(=O)c2sc3nccc4c3c2NC(=O)N4c2ccc(Oc3ccccc3)cc2C)C1", 6.3),
    ("Cc1cc(Oc2ccccc2)ccc1N1C(=O)Nc2c(C(=O)NC3COCCN(C)C3)sc3nccc1c23 (stereo not drawn)", 6.9),
    ("C=CC(=O)N1CCC[C@@H](NC(=O)c2sc3nccc4c3c2NC(=O)N4c2ccc(Oc3ccccc3)cc2)C1", 8.2),
    ("Cc1cc(Oc2ccccc2)ccc1N1C(=O)Nc2c(C(=O)N[C@@H]3CCCN(C(=O)CCO)C3)sc3nccc1c23 [Example 75]", 7.2),
    ("COCC(C)C(=O)N1CCC[C@@H](NC(=O)c2sc3nccc4c3c2NC(=O)N4c2ccc(Oc3ccccc3)cc2C)C1 (stereo partly drawn)", 7.1),
    ("C=CC(=O)N1CC[C@@H](NC(=O)c2sc3nccc4c3c2NC(=O)N4c2ccc(CC)cc2C)C1", 6.6),
    ("Cc1cc(Oc2ccccc2)ccc1N1C(=O)Nc2c(C(=O)N[C@@H]3CCN(C)C3)sc3nccc1c23", 6.9),
    ("Cc1cc(Oc2ccccc2)ccc1N1C(=O)Nc2c(C(=O)N[C@@H]3C[C@@H](F)CN(C)C3)sc3nccc1c23", 6.6),
]

Reported BTK_I_binding pIC50, compound CN1CCC[C@@H](NC(=O)c2sc3nccc4c3c2NC(=O)N4c2ccc(Oc3ccccc3)cc2F)C1 : ____
7.2

Same thing, different compound: Cc1cc(Oc2ccccc2)ccc1N1C(=O)Nc2c(C(=O)N[C@@H]3CCCN(C(=O)/C=C/C4CC4)C3)sc3nccc1c23
6.6

Now consider O=C(N[C@@H]1CCCNC1)c1sc2nccc3c2c1NC(=O)N3c1c(F)cc(Oc2ccccc2)cc1F .
7.0

Same for C=CC(=O)N1CCC[C@@H](NC(=O)c2sc3nccc4c3c2NC(=O)N4c2ccccc2)C1
6.4

Here is the next compound: Cc1cc(Oc2ccccc2)ccc1N1C(=O)Nc2c(C(=O)NC[C@@H]3CCCN3)sc3nccc1c23
6.3

// next record C=CC(=O)N1CCC[C@@H](NC(=O)c2sc3nccc4c3c2NC(=O)N4c2ccccc2F)C1
6.9

Also Cc1cc(Oc2ccccc2)ccc1N1C(=O)Nc2c(C(=O)NC3CCCN(C(=O)C4CC4)C3)sc3nccc1c23 (stereo not drawn) ?
6.8
